Assay: The drug is tested on Z-026 corresponding to metagenome with ENA study accession number: PRJEB37062 and ENA sample accession number: ERS12561825 for biotransformation under anaerobic condition. The drug concentrations were measured over 9 timepoints collected between 0 and 24 hours of incubation by liquid-chromatography-coupled mass spectrometry (LC–MS); note: call rule not given here
Conditions: 2 µM
observable: Bacterial Biotransformation

>  <molecule>
CN(C)CCc1c[nH]c2ccc(Cn3cncn3)cc12.O=C(O)c1ccccc1 [RIZATRIPTAN BENZOATE]

>  <Bacterial Biotransformation>
Compound NOT metabolized

$$$$
>  <molecule>
CC(C)NCC(O)c1ccc(NS(C)(=O)=O)cc1 (stereo not drawn)

>  <Bacterial Biotransformation>
Compound NOT metabolized

$$$$
>  <molecule>
CNC(=C[N+](=O)[O-])NCCSCc1ccc(CN(C)C)o1

>  <Bacterial Biotransformation>
Compound metabolized

$$$$
>  <molecule>
CC(C)N(CCC(C(N)=O)(c1ccccc1)c1ccccn1)C(C)C.O=P(O)(O)O (stereo not drawn) [DISOPYRAMIDE PHOSPHATE]

>  <Bacterial Biotransformation>
Compound NOT metabolized

$$$$
>  <molecule>
CN/C(=N/CCSCc1nc[nH]c1C)NC#N

>  <Bacterial Biotransformation>
Compound NOT metabolized

$$$$

*Q* Given the molecule C#C[C@]1(O)CC[C@H]2[C@@H]3CCC4=Cc5oncc5C[C@]4(C)[C@H]3CC[C@@]21C , what is its reported Bacterial Biotransformation?
*A* Compound metabolized

*Q* Given the molecule Nc1ccc(/N=N/c2ccccc2)c(N)n1 , what is its reported Bacterial Biotransformation?
*A* Compound metabolized

*Q* Given the molecule CC(C)c1nc(CN(C)C(=O)N[C@H](C(=O)N[C@@H](Cc2ccccc2)C[C@H](O)[C@H](Cc2ccccc2)NC(=O)OCc2cncs2)C(C)C)cs1 , what is its reported Bacterial Biotransformation?
*A* Compound metabolized

These measurements were taken from ChEMBL document CHEMBL5724914.
